Origin of measurements: ChEMBL document CHEMBL2202954

tested on: NCI-H322M; experiment: Cytotoxicity against human NCI-H322M cells assessed as cellular growth at 10 uM by SRB assay; type: functional
Readings of Activity for the listed molecules
Answer with a number only, understood to be in %.

These recorded examples may help you get a feel for the data.
In [3]: df
Out[3]:
                           structure_string     val
0  O=c1/c(=C/c2ccccc2)sc2nc(-c3ccc(Cl)cc3Cl)nn12  131.46
1       COc1ccc2[nH]c(C(=O)NCc3ccccc3)cc2c1   90.03

Prompt line: Quick one: Activity for "N#Cc1ccc(NC(=O)c2sc3nc4c(cc3c2N)C(=O)CCC4)cc1" ?
Response line: 102.55

Prompt line: Same again, this time with "O=C(NCCc1ccccc1)c1cc2cccc([N+](=O)[O-])c2[nH]1"
Response line: 115.94

Prompt line: Now the same for "O=C(Nc1ccc2oc(=O)ccc2c1)c1ccc(-c2ccc(Br)cc2)o1"
Response line: 154.44

Prompt line: What about this molecule? "Oc1ccccc1-c1nc(-c2cccs2)no1"
Response line: 116.66

====

tested on: SK-MEL-2; assay: Cytotoxicity against human SK-MEL-2 cells assessed as cellular growth at 10 uM by SRB assay; type: functional
Metric: Activity (%)
Your answer should be a plain number; it is taken to be in %.

Take a look at these entries with their results.
                           structure_string    metric     val
0     COc1ccc(Cl)cc1C(=O)Nc1nc2ccc(Cl)cc2s1  Activity   103.7
1             Clc1ccccc1Nc1nnc(-c2ccncc2)s1  Activity  106.68
2  O=C(Nc1ccc2oc(=O)ccc2c1)c1ccc(-c2ccc(Br)cc2)o1  Activity  121.49
3     Cc1ccc(C2=N/C(=C\c3ccccc3)C(=O)O2)cc1  Activity  108.55
4               Oc1ccccc1-c1nc(-c2cccs2)no1  Activity  107.16

Prompt line: Field request: Activity | item: "COc1ccc(NC(=O)c2sc3nc4c(cc3c2N)C(=O)CCC4)cc1"
Response line: 114.87

Prompt line: Ok, now "COc1cc(/C=c2/sc3nc4ccccc4n3c2=O)cc(I)c1O"
Response line: 104.64

Prompt line: Now the compound "CC1(C)CCc2cc(-c3ccn(S(=O)(=O)c4cccc(C(F)(F)F)c4)n3)ccc2O1"
Response line: 107.75

Prompt line: Please answer likewise for "O=c1/c(=C/c2ccc(Cl)cc2Cl)sc2nc(-c3ccccc3)nn12"
Response line: 107.26

Prompt line: Let us now turn to "Nc1c(C(=O)NCc2ccccc2)sc2nc3c(cc12)C(=O)CCC3"
Response line: 121.61

Prompt line: And the next one, "Cc1ccc(C(=O)/C=C2/Nc3ccc(C)cc3OC2=O)cc1" ?
Response line: 123.75

====

Listing: Activity of selected molecules
system: MCF7; assay: Cytotoxicity against human MCF7 cells assessed as cellular growth at 10 uM by SRB assay; type: functional
Return type: number; implicit unit %.

Sample records with Activity:
>>> df
                           structure_string    metric     val
0        COc1ccc2nc(NC(=O)c3ccc(F)cc3)sc2c1  Activity   70.13
1  COc1ccc(S(=O)(=O)n2ccc(-c3ccc4c(c3)CCC(C)(C)O4)n2)cc1  Activity   73.48
2  O=c1/c(=C/c2ccccc2)sc2nc(-c3ccc(Cl)cc3Cl)nn12  Activity  100.42
3  O=C(Nc1ccc2oc(=O)ccc2c1)c1ccc(-c2ccc(Cl)c(Cl)c2)o1  Activity   86.24

Prompt line: If you can, please state the reported Activity value of "CC1(C)CCc2cc(-c3ccn(S(=O)(=O)c4ccccc4Cl)n3)ccc2O1" .
Response line: 73.21

Prompt line: // query: "Nc1c(C(=O)Nc2ccccc2)sc2nc3c(cc12)C(=O)CCC3"
Response line: 19.61

Prompt line: # repeat for "COc1ccc(NC(=O)c2sc3nc4c(cc3c2N)C(=O)CCC4)cc1"
Response line: 104.14

Prompt line: Input "O=C(NCCc1ccccc1)c1[nH]c2ccccc2c1Cl"
Response line: 83.19

Prompt line: Also "O=S(=O)(Oc1ccc(-c2cnc3ccccc3n2)cc1)c1ccccc1" ?
Response line: 94.53

====

test system: MCF7; experiment: Cytotoxicity against human MCF7 cells assessed as cellular growth at 10 uM by SRB assay; format: functional
Here, each record is paired with measured Activity data.
Express it in %; write the number only.

Solved cases below.
>>> df
                           structure_string    metric    val
0  CC1(C)CC(=O)c2cc3c(N)c(C(=O)NCc4ccccc4)sc3nc2C1  Activity  87.02
1      Cc1ccc(CNC(=O)c2[nH]c3ccccc3c2Cl)cc1  Activity  98.84
2  O=c1/c(=C/c2ccccc2Cl)sc2nc(-c3ccccc3)nn12  Activity  91.04
3            Clc1cccc(-c2nc(-c3cccs3)no2)c1  Activity  33.74
4  Nc1c(C(=O)Nc2ccccc2F)sc2nc3c(cc12)C(=O)CCC3  Activity  22.91
5  Cc1ccccc1NC(=O)c1sc2nc3c(cc2c1N)C(=O)CCC3  Activity  21.69
6  Cc1ccc(Cl)cc1NC(=O)c1sc2nc3c(cc2c1N)C(=O)CCC3  Activity  35.55
7            N#Cc1ccc(-n2nnc3ccccc32)cc1C#N  Activity  82.05

Prompt line: Fill in: Activity of "Nc1c(C(=O)Nc2ccc(Cl)c(Cl)c2)sc2nc(-c3cccs3)ccc12" is ___
Response line: 87.77

Prompt line: Next record, please: "N#Cc1ccc(NC(=O)c2sc3nc4c(cc3c2N)C(=O)CCC4)cc1"
Response line: 97.4

Prompt line: What do you have for "O=C(Nc1nc2ccccc2s1)c1ccc(F)cc1" ?
Response line: 68.1

Prompt line: Do the same for "Clc1ccc(-c2nc(-c3cccs3)no2)cc1" please
Response line: 36.78

====

test system: MDA-MB-435; test: Cytotoxicity against human MDA-MB-435 cells assessed as cellular growth at 10 uM by SRB assay; type: functional
Below, each of the compounds is paired with its reported Activity value.
Value expressed in %; do not type the unit.

>>> df
                           structure_string     val
0               Oc1ccccc1-c1nc(-c2cccs2)no1  112.76
1  COc1cc(/C=c2/sc3nc4ccccc4n3c2=O)cc(I)c1O   97.54
2  COc1ccc(NC(=O)c2sc3nc4c(cc3c2N)C(=O)CCC4)cc1   97.12
3  Nc1c(C(=O)Nc2ccccc2)sc2nc3c(cc12)C(=O)CCC3   -5.95

Turning to the following compound.
Prompt line: Would you kindly share the measured Activity for "COc1ccc2nc(NC(=O)c3ccc(F)cc3)sc2c1" ?
Response line: 96.73

====

In this section, each of the compounds is paired with its reported Activity.
tested on: SNB-75; assay: Cytotoxicity against human SNB75 cells assessed as cellular growth at 10 uM by SRB assay; assay type: functional
Express the result in % but write the number alone.

Solved entries (count: 8):
In [3]: df
Out[3]:
                           structure_string    metric  reading_unit     val
0  COc1cc(/C=c2/sc3nc4ccccc4n3c2=O)cc(I)c1O  Activity             %  114.58
1  CC1(C)CC(=O)c2cc3c(N)c(C(=O)NCc4ccccc4)sc3nc2C1  Activity             %   98.33
2  CC1(C)CC(=O)c2cc3c(N)c(C(=O)Nc4ccc(Cl)cc4)sc3nc2C1  Activity             %  113.88
3  Cc1ccc(NC(=O)c2sc3nc4c(cc3c2N)C(=O)CCC4)c(Br)c1  Activity             %  107.29
4   O=C1N=C(c2ccccc2)S/C1=C\c1ccc2c(c1)OCO2  Activity             %   95.66
5  O=C(Nc1ccc2oc(=O)ccc2c1)c1ccc(-c2ccc(Br)cc2)o1  Activity             %  104.41
6  O=c1/c(=C/c2ccccc2Cl)sc2nc(-c3ccccc3)nn12  Activity             %   64.38
7     O=C(NCc1ccc(Cl)cc1)c1[nH]c2ccccc2c1Cl  Activity             %   94.33

Prompt line: GET /values?readout=Activity&item= "N#Cc1ccc(NC(=O)c2sc3nc4c(cc3c2N)C(=O)CCC4)cc1"
Response line: 113.44

Prompt line: One more compound: "Oc1ccccc1-c1nc(-c2cccs2)no1"
Response line: 90.2

Prompt line: And what about the compound "Cc1ccc(Cl)cc1NC(=O)c1sc2nc3c(cc2c1N)C(=O)CCC3" ?
Response line: 48.01
